Reported log10(Kd) values for the following compounds.
- ASSAY_NOTES: Binding affinity against bacterial 16S rRNA using mass spectrometry based assay
- Set-up: species or system Escherichia coli
The base-10 logarithm of Kd, taken with Kd in µM, is what appears here.

CN(CCCCCCN(C)CC(O)CO[C@H]1[C@H](O)[C@@H](O)[C@H](N)C[C@@H]1N)CC(O)CO[C@H]1O[C@H](CO)[C@@H](O)[C@H](O)[C@H]1N (stereo not given in full); 1.59
CN(CCN(C)CC(O)CO[C@H]1[C@H](O)[C@@H](O)[C@H](N)C[C@@H]1N)CC(O)CO[C@H]1O[C@H](CN)[C@@H](O)[C@H](O)[C@H]1N (stereo not given in full); 1.67
N[C@@H]1C[C@H](N)[C@@H](O)[C@H](OCC(O)CNCCCCNCC(O)CO[C@@H]2[C@@H](O)[C@H](N)C[C@H](N)[C@H]2O)[C@H]1O (stereo not given in full); 1.98
CN(CCCCCCN(C)CC(O)CO[C@H]1[C@H](O)[C@@H](O)[C@H](N)C[C@@H]1N)CC(O)CO[C@H]1O[C@H](CN)[C@@H](O)[C@H](O)[C@H]1N (stereo not given in full); 1.51
CN(CCCCN(C)CC(O)CO[C@H]1[C@H](O)[C@@H](O)[C@H](N)C[C@@H]1N)CC(O)CO[C@H]1O[C@H](CN)[C@@H](O)[C@H](O)[C@H]1N (stereo not given in full); 1.11
CN(CCCCCCN(C)CC(O)CO[C@H]1[C@H](O)[C@@H](O)[C@H](N)C[C@@H]1N)CC(O)CO[C@H]1[C@H](O)[C@@H](O)[C@H](N)C[C@@H]1N (stereo not given in full); 1.32
CN(CCN(C)CC(O)CO[C@H]1O[C@H](CO)[C@@H](O)[C@H](O)[C@H]1N)CC(O)CO[C@@H]1O[C@H](CO)[C@@H](O)[C@H](O)[C@H]1N (stereo not given in full); 2.16
CN(CCCCCCN(C)CC(O)CO[C@H]1O[C@H](CN)[C@@H](O)[C@H](O)[C@H]1N)CC(O)CO[C@@H]1O[C@H](CN)[C@@H](O)[C@H](O)[C@H]1N (stereo not given in full); 1.04

Lookup: Tell me log10(Kd) reported for "N[C@@H]1C[C@H](N)[C@@H](O)[C@H](O)[C@H]1O"
Found: 2.11

Lookup: Answer with the recorded log10(Kd) for the compound listed here: CN(CCCCN(C)CC(O)CO[C@@H]1[C@@H](O)[C@H](N)C[C@H](N)[C@H]1O)CC(O)CO[C@H]1O[C@H](CO)[C@@H](O)[C@H](O)[C@H]1N (stereo not given in full)
Found: 1.46
